- subject_of_test: T1, human beta CGRP (SEQ ID NO: 81) (human, not fully specified)
- T1 construct: also called human βCGRP; hβCGRP
- T1 peptide: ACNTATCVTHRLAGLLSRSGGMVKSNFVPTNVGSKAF
- method_description: SPR, 37 C, mutein captured, CGRP analyte
quantity_kind: log10 of koff (log10 of the value in s⁻¹)
Note the log scale: values are log10 of koff expressed in s⁻¹.

INSERT INTO assay_data (binder, quantity_kind, observed_value) VALUES
  ('lipocalin mutein SEQ ID NO: 23 (designed binder, biotinylated by NHS chemistry for capture in SPR) QDSTSDLIPAPPLSKVPLQQNFQDNQFHGKWYVVGWAGNTLLREDKDPIKMQAKIYELKEDRSYNVTWVYFADKKCNYHIETFVPGSQPGEFTLGLIKSYPGETPILVRVVSTNYNQHAMVFFKGVNQNREIFEIILYGRTKELTNELKENFIRFSKSLGLPENHIVFPVPIDQCIDGSAWSHPQFEK', 'log10 of koff', -5.39),
  ('lipocalin mutein SEQ ID NO: 21 (designed binder, biotinylated by NHS chemistry for capture in SPR) QDSTSDLIPAPPLSKVPLQQNFQDNQFHGKWYVVGRAGNDALREDKDPEKMEATIYELKEDKSYNVTDVGFVQKKCMYVIHTFVPGSQPGEFTLGNIKSYPGVTSALIRVVNTNYNQHAMVFVKLVKQNRELFEITLYGRTKELTSELKENFIRFSKSLGLPENHIVFPVPIDQCIDGSAWSHPQFEK', 'log10 of koff', -5.06),
  ('lipocalin mutein SEQ ID NO: 27 (designed binder, biotinylated by NHS chemistry for capture in SPR) QDSTSDLIPAPPLSKVPLQQNFQDNQFHGKWYVVGWAGNTLLREDKDPIKMQAMIYELKEDKSYNVTWVYFADKKCNYHIETFVPGSQPGEFTLGTIKSYPGETPILVRVVSTNYNQHAMVFFKGVNQNREIFEIVLYGRTKELTNELKENFIRFSKSLGLPENHIVFPVPIDQCIDGSAWSHPQFEK', 'log10 of koff', -4.65),
  ('lipocalin mutein SEQ ID NO: 16 (designed binder, biotinylated by NHS chemistry for capture in SPR) QDSTSDLIPAPPLSKVPLQQNFQDNQFHGKWYVVGRAGNDELREDKDPEKMEATIYELKEDKSYNVTDVGFVQKKCMYVIHTFVPGSQPGEFTLGNIKSYPGVTSGLVRVVSTNYNQHAMVFFKVVRQNRELFEITLYGRTKELTSELKENFIRFSKSLGLPENHIVFPVPIDQCIDGSAWSHPQFEK', 'log10 of koff', -3.44);

Continue with the next binder.
Identify log10 of koff associated with the binder lipocalin mutein SEQ ID NO: 24 (designed binder, biotinylated by NHS chemistry for capture in SPR) QDSTSDLIPAPPLSKVPLQQNFQDNQFHGKWYVVGWAGNTLLREDKDPIKMQAKIYELKEDRSYNVTWVYFAEKKCNYHIETFVPGSQPGEFTLGTIKSYPGETPILVRVVSTNYNQHAMVFFKGVNQNREIFEIILYGRTKELTNELKENFIRFSKSLGLPENHIVFPVPIDQCIDGSAWSHPQFEK
-5.05
